# Assay Comment: basal RPMI8226 viability, no added stimulus, profiling panel, cell-based, calcein-AM fluorescence, 48 h, PK04 Diversity Set (AID 1166);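 note: cells grown under basal conditions without added stimulus; test concentration not given here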
# Assay Setup: RPMI8226 myeloma viability, higher = more signal
Measured Metric: z-score
Please respond with just the number, no unit label.

{"Compound": "CCCNC(=O)[C@@H]1c2ccccc2C(=O)N(C2CCCCC2)[C@H]1c1ccc(CO)cc1", "z-score": 0.0117}

Problem: Requested read-out: z-score. Entry: N#Cc1ccc(NN2C(C(O)CCc3ccccc3)C=CC3C(=O)N(c4ccccc4)C(=O)C32)cc1 (configuration not stated)
Solution: -0.0961

* * *

# Tgt: NADPH oxidase 5 (Homo sapiens) (UniProt Q96PH1)
# Sequence (Q96PH1 whole entry, looked up): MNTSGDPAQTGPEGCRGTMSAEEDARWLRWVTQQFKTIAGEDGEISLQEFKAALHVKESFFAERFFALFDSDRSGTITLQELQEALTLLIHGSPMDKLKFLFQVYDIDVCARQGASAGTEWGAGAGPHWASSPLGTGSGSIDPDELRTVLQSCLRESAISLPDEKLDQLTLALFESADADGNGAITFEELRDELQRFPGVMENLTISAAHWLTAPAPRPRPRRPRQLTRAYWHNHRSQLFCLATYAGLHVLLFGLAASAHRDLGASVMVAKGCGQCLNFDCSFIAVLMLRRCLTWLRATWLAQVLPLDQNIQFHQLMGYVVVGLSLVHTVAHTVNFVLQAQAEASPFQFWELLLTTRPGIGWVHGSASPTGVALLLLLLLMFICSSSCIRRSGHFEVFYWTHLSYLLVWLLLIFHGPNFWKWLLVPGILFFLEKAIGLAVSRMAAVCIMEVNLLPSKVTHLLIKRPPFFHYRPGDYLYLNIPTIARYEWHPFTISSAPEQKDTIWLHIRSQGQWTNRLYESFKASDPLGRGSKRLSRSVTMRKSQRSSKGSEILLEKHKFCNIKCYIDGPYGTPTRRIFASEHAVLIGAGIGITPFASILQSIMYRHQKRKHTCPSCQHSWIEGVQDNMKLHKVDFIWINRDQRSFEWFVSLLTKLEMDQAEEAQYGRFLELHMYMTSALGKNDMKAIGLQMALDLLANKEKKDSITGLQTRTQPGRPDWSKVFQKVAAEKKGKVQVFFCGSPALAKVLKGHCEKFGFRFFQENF
# Assay Comment: NOX5-dependent H2O2 signal modulators, primary screen, NOX inhibitor project, cell-based, HEK293-NOX5, Amplex Red fluorescence (AID 1161)
# Assay Setup: HEK293-NOX5, ionomycin, 45 min, higher = more signal
Measured Metric: z-score
Please respond with just the number, no unit label.

As a guide, the following entries are already answered.
{"Compound": "COc1ccc([C@H]2C[C@H]3C(Br)=C[C@]2(OC)C(=O)[C@]32CO2)cc1", "Tgt": "NADPH oxidase 5 (Homo sapiens) (UniProt Q96PH1)", "Result Value": -0.292}
{"Compound": "C[C@@H]1NC(=O)[C@H](Cc2ccccc2)NC(=O)[C@@]23C(=O)N[C@@H](Cc4ccccc4)C2[C@H](C)[C@@]2(C)O[C@H]2C3/C=C/C/C=C\\CNC1=O (some centres not stated)", "Tgt": "NADPH oxidase 5 (Homo sapiens) (UniProt Q96PH1)", "Result Value": 0.906}
{"Compound": "CN1CCC(CCCO)=CC1C1CC1 (configuration not stated)", "Tgt": "NADPH oxidase 5 (Homo sapiens) (UniProt Q96PH1)", "Result Value": 0.0296}
{"Compound": "C=CC[C@]1(C(N)=O)N=C(c2ccc(OCCCO)cc2)O[C@H]1c1ccccc1CN=[N+]=[N-]", "Tgt": "NADPH oxidase 5 (Homo sapiens) (UniProt Q96PH1)", "Result Value": 0.568}
{"Compound": "COC(=O)[C@H]1[C@@H]2COc3ccccc3[C@H]2N[C@H]1C(=O)OC", "Tgt": "NADPH oxidase 5 (Homo sapiens) (UniProt Q96PH1)", "Result Value": -1.9}

Problem: Requested read-out: z-score. Entry: `C=C(CCCC)/C(=C/C[C@@H](OC(=O)c1ccncc1)c1ccc(CO)o1)c1cnc2ccccc2c1`
Solution: -0.634

Problem: Requested read-out: z-score. Entry: `COc1cc(Cc2cc3c(c(CCc4ccccc4)n2)[Si](C(C)C)(C(C)C)OC3)cc(OC)c1OC`
Solution: -2.59

Problem: Requested read-out: z-score. Entry: `CCOC(=O)[C@H]1C/C=C/C[C@H](C(=O)OCC)C(=O)O[C@H]2[C@@H](OC)O[C@H](CO)[C@@H](OC(=O)Nc3ccc(Br)cc3)[C@@H]2OC1=O`
Solution: 1.63

Problem: Requested read-out: z-score. Entry: CC1CC/C=C\[C@H]2OC34C=CCN(Cn5nnc6ccccc65)C(=O)[C@H]3N(C(C)CO)C(=O)[C@@H]4C2C(=O)O1 (some centres not stated)
Solution: 1.79

Problem: Requested read-out: z-score. Entry: CN1C(=O)C2C=CC(C(O)C3CC=CCC3)N(Nc3ccccc3)C2C1=O (configuration not stated)
Solution: -3.05

Problem: Requested read-out: z-score. Entry: `COc1ccc([Si](C)(C)[C@@H]2[C@@H](CCO)O[C@]3(C(=O)N(Cc4ccccc4)c4ccccc43)[C@H]2C)cc1`
Solution: 1.84

Problem: Requested read-out: z-score. Entry: `NC(=O)NCC#Cc1ccc2c(c1)[C@]1(C(=O)N2)[C@H](c2ccccc2OCCO)N2[C@H](c3ccccc3)[C@H](c3ccccc3)OC(=O)[C@H]2[C@@H]1C(=O)N1CCN(c2ncccn2)CC1`
Solution: -0.596

Problem: Requested read-out: z-score. Entry: `O=C(NCc1ccccc1)[C@@]1(CCS(=O)(=O)c2ccccc2)COC(c2ccc(OCCCO)cc2)=N1`
Solution: -2.24
